system: giant foxtail; assay: Test A pre-/postemergence herbicide test; type: in vivo, Setaria faberi; details: Preemergence, 500 g ai/ha; visual rating, 0 to 100 scale (0 no effect, 100 complete control)
Known Foxtail, Giant plant response rating of a selection of compounds

>  <LINE_NOTATION>
CCNC(=O)c1cc(NC(=O)c2cc(C(C)(C)C)nn2CC)ccc1F

>  <TARGET_DESC>
giant foxtail

>  <Foxtail, Giant plant response rating>
85

$$$$
>  <LINE_NOTATION>
C=Cn1nc(C(C)(C)C)cc1C(=O)Nc1cccc(C(C)=NO)c1

>  <TARGET_DESC>
giant foxtail

>  <Foxtail, Giant plant response rating>
30

$$$$
>  <LINE_NOTATION>
Cn1nc(C(C)(C)C)cc1C(=O)Nc1cccc2c1CCC2=NO

>  <TARGET_DESC>
giant foxtail

>  <Foxtail, Giant plant response rating>
45

$$$$

====

Known Plant response rating (0 = no effect, 100 = complete control), Nightshade of a selection of compounds
test system: eastern black nightshade; assay: Test C pre-/postemergence herbicide test; assay type: in vivo, Solanum ptycanthum; conditions: 125 g ai/ha; preemergence
REPORTED_ENDPOINT: Plant response rating (0 = no effect, 100 = complete control), Nightshade

>  <COMPOUND>
CCC1=NN(C(C)(C)C)CC1C(=O)Nc1cc(C(=O)N(C)C)ccc1F (racemic)

>  <OBSERVED_VALUE>
60

$$$$
>  <COMPOUND>
CCc1nn(C(C)(C)C)nc1C(=S)Nc1cccc(C(=S)N(C)C)c1

>  <OBSERVED_VALUE>
100

$$$$
>  <COMPOUND>
CCc1nn(C(C)(C)C)nc1C(=O)Nc1cccc(C(=S)N(C)C)c1

>  <OBSERVED_VALUE>
100

$$$$
>  <COMPOUND>
CCOC(=O)c1cccc(NC(=O)c2nn(C(C)(C)CC)nc2CC)c1

>  <OBSERVED_VALUE>
50

$$$$
>  <COMPOUND>
CCn1nc2c(c1C(=O)Nc1cc(C(=O)N(C)C)ccc1F)CCC2(C)C

>  <OBSERVED_VALUE>
0

$$$$

====

tested on: giant foxtail; test: Test C pre-/postemergence herbicide test; format: in vivo, Setaria faberi; details: 500 g ai/ha; scale 0 to 100 (0 no effect, 100 complete control); visual, 12 to 14 days; preemergence

>  <MOLECULE>
CCc1nn(C(C)(C)C)cc1C(=O)Nc1cc(C(=O)N(C)C)ccn1 [Compound 293]

>  <Plant response rating, Foxtail, Giant>
100

$$$$
>  <MOLECULE>
CCn1nc(C(C)(C)C)cc1C(=O)Nc1cc(C(=S)N(C)C)ccc1F [Compound 294]

>  <Plant response rating, Foxtail, Giant>
90

$$$$
>  <MOLECULE>
CCNC(=O)c1cccc(NC(=O)c2sc(C(C)(C)C)nc2CC)n1 [Compound 213]

>  <Plant response rating, Foxtail, Giant>
100

$$$$
>  <MOLECULE>
CCn1nc(C2(C)CC2)cc1C(=O)Nc1cc(C(=O)N(C)C)ccc1F [Compound 299]

>  <Plant response rating, Foxtail, Giant>
100

$$$$
>  <MOLECULE>
C=CCNC(=O)c1cccc(NC(=O)c2nn(C(C)(C)C)nc2CC)c1 [Compound 414]

>  <Plant response rating, Foxtail, Giant>
100

$$$$
>  <MOLECULE>
CCn1nc(C(C)(C)C)cc1C(=S)Nc1cc(C(=S)N(C)C)ccc1F [Compound 305]

>  <Plant response rating, Foxtail, Giant>
100

$$$$

====

tested on: common ragweed; experiment: Test C pre-/postemergence herbicide test; assay type: in vivo, Ambrosia elatior; conditions: Preemergence, 500 g ai/ha; scale 0 to 100, 0 no effect, 100 complete control
Known Ragweed plant response rating of a selection of compounds
REPORTED_ENDPOINT: Ragweed plant response rating

>  <COMPOUND>
C=CCNC(=O)c1cccc(NC(=O)c2sc(C(C)(C)C)nc2CC)c1 [Compound 207]

>  <REPORTED_ENDPOINT>
Ragweed plant response rating

>  <OBSERVED_VALUE>
100

$$$$
>  <COMPOUND>
CC(=NO)c1cccc(NC(=O)c2cc(C(C)(C)C)nn2CCF)c1 [Compound 115]

>  <REPORTED_ENDPOINT>
Ragweed plant response rating

>  <OBSERVED_VALUE>
100

$$$$
>  <COMPOUND>
CCNC(=O)c1ccc(F)c(NC(=O)c2cc(C(C)(C)C)nn2CC)c1 [Compound 2]

>  <REPORTED_ENDPOINT>
Ragweed plant response rating

>  <OBSERVED_VALUE>
100

$$$$
>  <COMPOUND>
CCNC(=O)c1cccc(NC(=O)c2sc(C(C)(C)C)nc2C)c1 [Compound 198]

>  <REPORTED_ENDPOINT>
Ragweed plant response rating

>  <OBSERVED_VALUE>
100

$$$$
>  <COMPOUND>
CC(=NO)c1cccc(NC(=O)c2sc(C(C)(C)C)nc2C)c1 [Compound 195]

>  <REPORTED_ENDPOINT>
Ragweed plant response rating

>  <OBSERVED_VALUE>
90

$$$$
>  <COMPOUND>
C=CCNC(=O)c1cccc(NC(=O)c2cc(C(C)(C)C)nn2CC)c1 [Compound 46]

>  <REPORTED_ENDPOINT>
Ragweed plant response rating

>  <OBSERVED_VALUE>
90

$$$$
>  <COMPOUND>
CCCN1CCc2c(NC(=O)c3cc(C(C)(C)C)nn3CC)cccc2C1=O [Compound 65]

>  <REPORTED_ENDPOINT>
Ragweed plant response rating

>  <OBSERVED_VALUE>
60

$$$$
>  <COMPOUND>
CCn1nc(C(C)(C)C)cc1C(=O)Nc1cccc2c1CCN(C1CC1)C2=O [Compound 64]

>  <REPORTED_ENDPOINT>
Ragweed plant response rating

>  <OBSERVED_VALUE>
20

$$$$
>  <COMPOUND>
CCn1nc(C(C)(C)C)cc1C(=O)Nc1cccc2c1CN(C)C2=O [Compound 55]

>  <REPORTED_ENDPOINT>
Ragweed plant response rating

>  <OBSERVED_VALUE>
80

$$$$

====

test system: barnyardgrass; assay: Test B pre-/postemergence herbicide test; assay type: in vivo, Echinochloa crus-galli; settings: 125 g ai/ha; 0 = no effect, 100 = complete control; preemergence
REPORTED_ENDPOINT: Barnyardgrass plant response rating (0 to 100 scale)

>  <LINE_NOTATION>
CCc1nn(C(C)(C)C)cc1C(=O)Nc1ccc(F)c(C(=O)N(CC)CC)c1

>  <TARGET_DESC>
barnyardgrass

>  <OBSERVED_VALUE>
0

$$$$
>  <LINE_NOTATION>
CCc1nn(C(C)(C)C)cc1C(=O)Nc1cc(C(=O)N(CC)CC)ccc1F

>  <TARGET_DESC>
barnyardgrass

>  <OBSERVED_VALUE>
20

$$$$
>  <LINE_NOTATION>
CCNC(=O)c1cccc(NC(=O)c2cc(C3(C)CC3)nn2CC)c1

>  <TARGET_DESC>
barnyardgrass

>  <OBSERVED_VALUE>
60

$$$$

====

tested on: pitted morningglory; experiment: Test E pre-/postemergence herbicide test; type: in vivo, Ipomoea lacunosa; settings: Preemergence, 125 g ai/ha; scale 0 to 100
REPORTED_ENDPOINT: Plant response rating, Morningglory

>  <LINE_NOTATION>
CCc1nn(C(C)(C)C)nc1C(=O)Nc1cccc(C(=O)N(C)CC)c1

>  <REPORTED_ENDPOINT>
Plant response rating, Morningglory

>  <OBSERVED_VALUE>
60

$$$$
>  <LINE_NOTATION>
CCn1nc(C2(C)CC2)cc1C(=O)Nc1cc(C(=O)N(C)C)ccc1F

>  <REPORTED_ENDPOINT>
Plant response rating, Morningglory

>  <OBSERVED_VALUE>
75

$$$$
>  <LINE_NOTATION>
CCc1nn(C(C)(C)C)cc1C(=O)Nc1cc(C(=O)N(C)C)ccn1

>  <REPORTED_ENDPOINT>
Plant response rating, Morningglory

>  <OBSERVED_VALUE>
10

$$$$
>  <LINE_NOTATION>
CCNC(=O)c1cccc(NC(=O)c2nn(C(C)(C)C)nc2C)c1

>  <REPORTED_ENDPOINT>
Plant response rating, Morningglory

>  <OBSERVED_VALUE>
40

$$$$

====

system: large crabgrass; experiment: Test C pre-/postemergence herbicide test; type: in vivo, Digitaria sanguinalis; conditions: postemergence, 125 g ai/ha; scale 0 to 100

>  <COMPOUND>
C=Cn1nc(C(C)(C)C)cc1C(=O)Nc1cccc(C(C)=NO)c1 [Compound 114]

>  <Plant response rating, Crabgrass, Large>
100

$$$$
>  <COMPOUND>
CC(=NO)c1cccc(NC(=O)c2cc(C(C)(C)C)nn2CCF)c1 [Compound 115]

>  <Plant response rating, Crabgrass, Large>
70

$$$$
>  <COMPOUND>
CCOC(=O)c1cc(NC(=O)c2cc(C(C)(C)C)nn2CC)ccc1OC [Compound 96]

>  <Plant response rating, Crabgrass, Large>
0

$$$$
>  <COMPOUND>
CCOC(=O)c1cccc(NC(=O)c2nn(C(C)(C)CC)nc2CC)c1 [Compound 375]

>  <Plant response rating, Crabgrass, Large>
20

$$$$
